test system: OVCAR-5 ovarian; test: NCI tumour cell line growth inhibition, 48 h
PROPERTY NAME: TGI (µM)
One number for each entry, in µM.

The examples below pair each entry with its known result.
[
  {
    "MOLECULE": "NS(=O)(=O)c1ccc(Nc2c3ccccc3nc3c(C(=O)NC(CO)(CO)CO)cccc23)cc1",
    "TESTED SYSTEM": "OVCAR-5 ovarian",
    "TGI, µM": 0.709
  },
  {
    "MOLECULE": "Nc1nc(SCC#CCCl)c2[nH]cnc2n1",
    "TESTED SYSTEM": "OVCAR-5 ovarian",
    "TGI, µM": 17.7
  }
]

Now for the molecule whose TGI we want.
In plain terms, CCNC(=O)O/N=C1\CCC2[C@@H]3CC=C4C[C@@H](OC(=O)NCC)CC[C@]4(C)C3CC[C@]12C (some centres not stated) has a documented TGI of 17.1

----------
test system: K-562 leukemia; assay: NCI tumour cell line growth inhibition, 48 h
Give measured TGI for each item. Keep answers brief.

The examples below pair each entry with its known result.
[
  {
    "COMPOUND": "C/C(=C\\COP(=O)(O)OP(=O)(O)O)CC/C=C(\\C)CNc1c(F)c(F)c(F)c(F)c1F",
    "TESTED SYSTEM": "K-562 leukemia",
    "TGI": "> 100 µM"
  },
  {
    "COMPOUND": "CN1CCN(Cc2ccc(NC(=O)c3cncc(C#Cc4c(N)ncc5ccccc45)c3)cc2C(F)(F)F)CC1",
    "TESTED SYSTEM": "K-562 leukemia",
    "TGI": "0.715 µM"
  },
  {
    "COMPOUND": "Nc1nc(SCC#CCCl)c2[nH]cnc2n1",
    "TESTED SYSTEM": "K-562 leukemia",
    "TGI": "40.5 µM"
  }
]

Hi! Can you tell me TGI for each of these compounds?
1. Cc1cccc(NC(=S)NNC(=O)c2cc(-c3ccccc3)nc3ccccc23)c1
2. CCOC(=O)C(Oc1ccc(OC)c2c1C(=O)CCC2)c1ccccc1 (stereo not given)
3. COc1cc([C@H]2OC[C@@H]3C(c4cc(OC)c5c(c4)OCO5)OC[C@H]23)cc(OC)c1OC (stereo not given in full)
4. C(=C\c1ccc2ccccc2c1Nc1ccccc1)/c1ccccc1

1. > 100 µM
2. > 100 µM
3. > 100 µM
4. 26.1 µM

----------
Give measured GI50 for each item. Keep answers brief.
system: HCT-116 colon; experiment: NCI tumour cell line growth inhibition, 48 h

Hi! Can you tell me GI50 for each of these molecules?
1. COc1cc(/C=N\Nc2ccccc2)ccc1OC(=O)c1ccccc1
2. CC[C@H](C)[C@H](NC(=O)CN(C)C)C(=O)N(C)[C@H](C[C@@H](OC(C)=O)c1nc(C(=O)NC23C4C5C2C2C3C4C52C(=O)OC)cs1)C(C)C (stereo partly drawn)
3. COC(=O)[C@]12CC[C@@H](C)[C@H](C)[C@@H]1C1=CC[C@@H]3[C@@]4(C)C[C@@H](OC(C)=O)[C@H](OC(C)=O)[C@@](C)(COC(C)=O)[C@@H]4[C@H](O)C[C@@]3(C)[C@]1(C)CC2

5760 nM
201 nM
423 nM

----------
Give measured TGI for each item. Keep answers brief.
test system: EKVX NSCLC; experiment: NCI tumour cell line growth inhibition, 48 h

The examples below pair each entry with its known result.
[
  {
    "MOLECULE": "N/N=C1/C(=O)N(c2ccc(Cl)cc2)C(=O)C(=O)C1c1nc2ccccc2s1 (stereo not given)",
    "TESTED SYSTEM": "EKVX NSCLC",
    "TEST RESULT": "> 100 µM"
  },
  {
    "MOLECULE": "O=C1c2ccccc2-c2cn(Cc3ccccc3)c3cccc(c23)C1c1cccnc1 (stereo not given)",
    "TESTED SYSTEM": "EKVX NSCLC",
    "TEST RESULT": "> 50 µM"
  },
  {
    "MOLECULE": "CCCCCCCCCC(=O)Oc1ccc(/C(=C(/C)c2ccccc2)c2ccc(OCCN3CCCC3)cc2)cc1",
    "TESTED SYSTEM": "EKVX NSCLC",
    "TEST RESULT": "13.6 µM"
  },
  {
    "MOLECULE": "O=C(NCC(O)COc1ccccc1)c1ccccc1O (stereo not given)",
    "TESTED SYSTEM": "EKVX NSCLC",
    "TEST RESULT": "> 100 µM"
  }
]

Now for the molecule whose TGI we want.
Kindly note: EKVX NSCLC, "O=C(Cn1c(=O)oc2ccccc21)N(c1ccccc1)c1ccccc1" , TGI value reported: > 100 µM

----------
test system: A498 renal; test: NCI tumour cell line growth inhibition, 48 h
Give measured TGI for each item. Keep answers brief.

The examples below pair each entry with its known result.
[
  {
    "COMPOUND": "CC(=O)OC1COC(N2C(=O)C(=O)c3ccccc32)C(OC(C)=O)C1OC(C)=O (configuration not stated)",
    "TESTED SYSTEM": "A498 renal",
    "TEST RESULT": "> 100 µM"
  },
  {
    "COMPOUND": "CCOC(=O)c1c(NS(=O)(=O)c2ccccc2)sc2c1CCCC2",
    "TESTED SYSTEM": "A498 renal",
    "TEST RESULT": "> 100 µM"
  },
  {
    "COMPOUND": "ClC/C=C/CSc1ncnc2nc[nH]c12",
    "TESTED SYSTEM": "A498 renal",
    "TEST RESULT": "> 100 µM"
  },
  {
    "COMPOUND": "Cc1csc(NCc2ccc(Cl)cc2)n1",
    "TESTED SYSTEM": "A498 renal",
    "TEST RESULT": "> 100 µM"
  },
  {
    "COMPOUND": "O=C(Cn1c(=O)oc2ccccc21)N(c1ccccc1)c1ccccc1",
    "TESTED SYSTEM": "A498 renal",
    "TEST RESULT": "> 100 µM"
  },
  {
    "COMPOUND": "O=C1OCc2nc3c(c(-c4ccccc4C(F)(F)F)c21)C(=O)OC3",
    "TESTED SYSTEM": "A498 renal",
    "TEST RESULT": "> 100 µM"
  },
  {
    "COMPOUND": "Cc1c2ccncc2c(C)c2c1[nH]c1ccc(O)cc12",
    "TESTED SYSTEM": "A498 renal",
    "TEST RESULT": "1.9 µg/mL"
  },
  {
    "COMPOUND": "CCOC(=O)C1=C(C)N(NC(=O)Nc2ccccc2)C2(N)N(NC(=O)Nc3ccccc3)C(C)=C(C(=O)OCC)C12C#N (configuration not stated)",
    "TESTED SYSTEM": "A498 renal",
    "TEST RESULT": "45 µM"
  },
  {
    "COMPOUND": "CN(N=O)c1ccc(/C=C/c2ccnc3ccccc23)cc1",
    "TESTED SYSTEM": "A498 renal",
    "TEST RESULT": "> 100 µM"
  },
  {
    "COMPOUND": "Cc1ccc2c(c1)CC1(Cc3cc(C)ccc3C1=O)C2=O",
    "TESTED SYSTEM": "A498 renal",
    "TEST RESULT": "> 100 µM"
  }
]

Hi! Can you tell me TGI for each of these compounds?
1. Cc1cccc(NC(=S)NNC(=O)c2cc(-c3ccccc3)nc3ccccc23)c1
2. CCOC(=O)c1cccc(N=NNc2cccc(C(=O)OCC)c2)c1

1. 47.6 µM
2. 86.1 µM

----------
test system: CAKI-1 renal; assay: NCI tumour cell line growth inhibition, 48 h
PROPERTY NAME: GI50

The examples below pair each entry with its known result.
[
  {
    "COMPOUND": "O=C1c2ccccc2-c2cn(Cc3ccccc3)c3cccc(c23)C1c1cccnc1 (centres undefined)",
    "PROPERTY NAME": "GI50",
    "TEST RESULT": "2740 nM"
  },
  {
    "COMPOUND": "COc1ccccc1NC(=O)c1sc2ncn(CCOc3ccccc3)c(=O)c2c1C",
    "PROPERTY NAME": "GI50",
    "TEST RESULT": "2420 nM"
  },
  {
    "COMPOUND": "C=CC[PH+](c1ccccc1)c1ccccc1.C=CC[PH+](c1ccccc1)c1ccccc1.[Pt+2].[S-]c1nc2ccccc2[nH]1.[S-]c1nc2ccccc2[nH]1",
    "PROPERTY NAME": "GI50",
    "TEST RESULT": "2540 nM"
  }
]

Kindly note: CAKI-1 renal, "CC/C(=C/c1ccc(OC)cc1)[N+](=O)[O-]" , GI50 value reported: 1670 nM
